Measured MIC50 accompanies every entry in the list below.
- Test system: Enterococcus faecalis
- assay-overview: Antimicrobial activity against vancomycin-resistant Enterococcus faecalis ATCC 51299
- Format: functional
- experimental-conditions: Enterococcus faecalis, ATCC 51299

compound: C[C@H]1c2cccc(O)c2C(=O)C2=C(O)[C@]3(O)C(=O)C(C(N)=O)=C(O)[C@@H](N(C)C)[C@@H]3[C@@H](O)[C@@H]21.O [DOXYCYCLINE]
MIC50: 16 µg/mL
--
compound: C[C@@H](O)[C@H]1C(=O)N2C(C(=O)O)=C(SCCNC=N)C[C@H]12 [IMIPENEM ANHYDROUS]
MIC50: 16 µg/mL
--
compound: CN[C@H](CC(C)C)C(=O)N[C@H]1C(=O)N[C@@H](CC(N)=O)C(=O)N[C@H]2C(=O)N[C@H]3C(=O)N[C@H](C(=O)N[C@H](C(=O)O)c4cc(O)cc(O)c4-c4cc3ccc4O)[C@H](O)c3ccc(c(Cl)c3)Oc3cc2cc(c3O[C@@H]2O[C@H](CO)[C@@H](O)[C@H](O)[C@H]2O[C@H]2C[C@](C)(N)[C@H](O)[C@H](C)O2)Oc2ccc(cc2Cl)[C@H]1O [VANCOMYCIN]
MIC50: 32 µg/mL
--
compound: CC[C@H]1OC(=O)[C@H](C)[C@@H](O[C@H]2C[C@@](C)(OC)[C@@H](O)[C@H](C)O2)[C@H](C)[C@@H](O[C@@H]2O[C@H](C)C[C@H](N(C)C)[C@H]2O)[C@](C)(O)C[C@@H](C)C(=O)[C@H](C)[C@@H](O)[C@]1(C)O [ERYTHROMYCIN]
MIC50: 16 µg/mL
--
compound: CCCCCCCCCCCCCCCC(=O)N[C@@H](CCCCN)C(=O)N[C@@H](CCCCN)C(=O)O
MIC50: 2 µg/mL
--
compound: CCCCCCCCCCCCCCCC(=O)N[C@@H](CCCCN)C(=O)N[C@@H](CCCCN)C(N)=O
MIC50: 2 µg/mL
--
compound: CC(=O)NC[C@H]1CN(c2ccc(N3CCOCC3)c(F)c2)C(=O)O1 [LINEZOLID]
MIC50: 1 µg/mL
--
compound: CC1(C)S[C@@H]2[C@H](NC(=O)[C@H](N)c3ccc(O)cc3)C(=O)N2[C@H]1C(=O)O [AMOXICILLIN]
MIC50: 16 µg/mL

* * *

Parameter: log10 MBC90. Scope: all listed entries.
- Tested on: Staphylococcus aureus
- assay-overview: Antimicrobial activity against methicillin-susceptible Staphylococcus aureus ATCC 29213
- Assay type: functional
property-measured: log10 MBC90 (log10 of the value in µg/mL)

molecule: CC[C@H]1OC(=O)[C@H](C)[C@@H](O[C@H]2C[C@@](C)(OC)[C@@H](O)[C@H](C)O2)[C@H](C)[C@@H](O[C@@H]2O[C@H](C)C[C@H](N(C)C)[C@H]2O)[C@](C)(O)C[C@@H](C)C(=O)[C@H](C)[C@@H](O)[C@]1(C)O
target-entity: Staphylococcus aureus
property-measured: log10 MBC90
numeric-value: 1.81
//
molecule: CC1(C)S[C@@H]2[C@H](NC(=O)[C@H](N)c3ccc(O)cc3)C(=O)N2[C@H]1C(=O)O
target-entity: Staphylococcus aureus
property-measured: log10 MBC90
numeric-value: 1.20
//
molecule: CC(=O)NC[C@H]1CN(c2ccc(N3CCOCC3)c(F)c2)C(=O)O1
target-entity: Staphylococcus aureus
property-measured: log10 MBC90
numeric-value: 0.30
//
molecule: CCCCCCCCCCCCCCCC(=O)N[C@@H](CCCCN)C(=O)N[C@@H](CCCCN)C(N)=O
target-entity: Staphylococcus aureus
property-measured: log10 MBC90
numeric-value: 1.20
//
molecule: C[C@@H](O)[C@H]1C(=O)N2C(C(=O)O)=C(SCCNC=N)C[C@H]12 [IMIPENEM ANHYDROUS]
target-entity: Staphylococcus aureus
property-measured: log10 MBC90
numeric-value: 0.90
//
molecule: CCCCCCCCCCCCCCCC(=O)N[C@@H](CCCCN)C(=O)N[C@@H](CCCCN)C(=O)O
target-entity: Staphylococcus aureus
property-measured: log10 MBC90
numeric-value: 1.20
//
molecule: C[C@H]1c2cccc(O)c2C(=O)C2=C(O)[C@]3(O)C(=O)C(C(N)=O)=C(O)[C@@H](N(C)C)[C@@H]3[C@@H](O)[C@@H]21.O
target-entity: Staphylococcus aureus
property-measured: log10 MBC90
numeric-value: 1.51
//
molecule: CN[C@H](CC(C)C)C(=O)N[C@H]1C(=O)N[C@@H](CC(N)=O)C(=O)N[C@H]2C(=O)N[C@H]3C(=O)N[C@H](C(=O)N[C@H](C(=O)O)c4cc(O)cc(O)c4-c4cc3ccc4O)[C@H](O)c3ccc(c(Cl)c3)Oc3cc2cc(c3O[C@@H]2O[C@H](CO)[C@@H](O)[C@H](O)[C@H]2O[C@H]2C[C@](C)(N)[C@H](O)[C@H](C)O2)Oc2ccc(cc2Cl)[C@H]1O
target-entity: Staphylococcus aureus
property-measured: log10 MBC90
numeric-value: 0.30

* * *

- Test system: Prescottella equi
- assay-overview: Antimicrobial activity against Rhodococcus equi ATCC 6939
- Format: functional
property-measured: MBC50 (µg/mL)

compound: CN[C@H](CC(C)C)C(=O)N[C@H]1C(=O)N[C@@H](CC(N)=O)C(=O)N[C@H]2C(=O)N[C@H]3C(=O)N[C@H](C(=O)N[C@H](C(=O)O)c4cc(O)cc(O)c4-c4cc3ccc4O)[C@H](O)c3ccc(c(Cl)c3)Oc3cc2cc(c3O[C@@H]2O[C@H](CO)[C@@H](O)[C@H](O)[C@H]2O[C@H]2C[C@](C)(N)[C@H](O)[C@H](C)O2)Oc2ccc(cc2Cl)[C@H]1O [VANCOMYCIN]
property-measured: MBC50
value-units: µg/mL
numeric-value: 8
--
compound: C[C@@H](O)[C@H]1C(=O)N2C(C(=O)O)=C(SCCNC=N)C[C@H]12 [IMIPENEM ANHYDROUS]
property-measured: MBC50
value-units: µg/mL
numeric-value: 8
--
compound: CCCCCCCCCCCCCCCC(=O)N[C@@H](CCCCN)C(=O)N[C@@H](CCCCN)C(N)=O
property-measured: MBC50
value-units: µg/mL
numeric-value: 8

* * *

MIC90 listing for selected compounds.
- System: Enterococcus faecalis
- assay-overview: Antimicrobial activity against vancomycin-susceptible Enterococcus faecalis ATCC 29212
- Type: functional
- experimental-conditions: Enterococcus faecalis, ATCC 29212

compound: CCCCCCCCCCCCCCCC(=O)N[C@@H](CCCCN)C(=O)N[C@@H](CCCCN)C(N)=O
MIC90 (µg/mL): 4

compound: C[C@H]1c2cccc(O)c2C(=O)C2=C(O)[C@]3(O)C(=O)C(C(N)=O)=C(O)[C@@H](N(C)C)[C@@H]3[C@@H](O)[C@@H]21.O
MIC90 (µg/mL): 32

compound: C[C@@H](O)[C@H]1C(=O)N2C(C(=O)O)=C(SCCNC=N)C[C@H]12 [IMIPENEM ANHYDROUS]
MIC90 (µg/mL): 16

compound: CC[C@H]1OC(=O)[C@H](C)[C@@H](O[C@H]2C[C@@](C)(OC)[C@@H](O)[C@H](C)O2)[C@H](C)[C@@H](O[C@@H]2O[C@H](C)C[C@H](N(C)C)[C@H]2O)[C@](C)(O)C[C@@H](C)C(=O)[C@H](C)[C@@H](O)[C@]1(C)O
MIC90 (µg/mL): 32

compound: CC(=O)NC[C@H]1CN(c2ccc(N3CCOCC3)c(F)c2)C(=O)O1
MIC90 (µg/mL): 2

compound: CC1(C)S[C@@H]2[C@H](NC(=O)[C@H](N)c3ccc(O)cc3)C(=O)N2[C@H]1C(=O)O
MIC90 (µg/mL): 16

compound: CN[C@H](CC(C)C)C(=O)N[C@H]1C(=O)N[C@@H](CC(N)=O)C(=O)N[C@H]2C(=O)N[C@H]3C(=O)N[C@H](C(=O)N[C@H](C(=O)O)c4cc(O)cc(O)c4-c4cc3ccc4O)[C@H](O)c3ccc(c(Cl)c3)Oc3cc2cc(c3O[C@@H]2O[C@H](CO)[C@@H](O)[C@H](O)[C@H]2O[C@H]2C[C@](C)(N)[C@H](O)[C@H](C)O2)Oc2ccc(cc2Cl)[C@H]1O
MIC90 (µg/mL): 2

compound: CCCCCCCCCCCCCCCC(=O)N[C@@H](CCCCN)C(=O)N[C@@H](CCCCN)C(=O)O
MIC90 (µg/mL): 4

* * *

- System: Streptococcus pyogenes
- assay-overview: Antimicrobial activity against Streptococcus pyogenes ATCC 19615
- Assay type: functional
- experimental-conditions: Streptococcus pyogenes, ATCC 19615
Recorded MIC50 for the following compounds
property-measured: MIC50 (µg/mL)

structure-smiles: CCCCCCCCCCCCCCCC(=O)N[C@@H](CCCCN)C(=O)N[C@@H](CCCCN)C(N)=O
property-measured: MIC50
numeric-value: 1

structure-smiles: CC1(C)S[C@@H]2[C@H](NC(=O)[C@H](N)c3ccc(O)cc3)C(=O)N2[C@H]1C(=O)O
property-measured: MIC50
numeric-value: 0.25

structure-smiles: CC[C@H]1OC(=O)[C@H](C)[C@@H](O[C@H]2C[C@@](C)(OC)[C@@H](O)[C@H](C)O2)[C@H](C)[C@@H](O[C@@H]2O[C@H](C)C[C@H](N(C)C)[C@H]2O)[C@](C)(O)C[C@@H](C)C(=O)[C@H](C)[C@@H](O)[C@]1(C)O
property-measured: MIC50
numeric-value: 4

Data origin: ChEMBL document CHEMBL1142149
